Origin of values: paper PMC5063714

The reader will find reported IC50 values listed item by item below.
Biological target: chromodomain of CBX8 (human) (UniProt Q9HC52)
Sequence (Q9HC52 8-61): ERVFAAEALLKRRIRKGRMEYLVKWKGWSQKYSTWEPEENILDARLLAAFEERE
Test: AlphaScreen or HTRF
Square brackets hold non-standard residues; d marks the D form. Ends that are not written are not given here. * marks the point of attachment. Lys(Me3) = C[N+](C)(C)CCCC[C@H](N)C(=O)O; Bz = O=C(c1ccccc1)*

Supply recorded IC50 for Bz-AL[Lys(Me3)]S-OMe (SMILES COC(=O)[C@H](CO)NC(=O)[C@H](CCCC[N+](C)(C)C)NC(=O)[C@H](CC(C)C)NC(=O)[C@H](C)NC(=O)c1ccccc1) [compound 4] here.
> 60 µM

Supply recorded IC50 for Bz-FAL[Lys(Me3)] (also: C-terminal R2 = -H in place of -CO-Ser-OMe (no Ser)) [compound 7] here.
> 60 µM
